Biological target: Protein-tyrosine kinase 6 (Homo sapiens, UniProt Q13882); also: in the data inactive means no Kd found up to 30 µM
Sequence (Q13882 whole entry): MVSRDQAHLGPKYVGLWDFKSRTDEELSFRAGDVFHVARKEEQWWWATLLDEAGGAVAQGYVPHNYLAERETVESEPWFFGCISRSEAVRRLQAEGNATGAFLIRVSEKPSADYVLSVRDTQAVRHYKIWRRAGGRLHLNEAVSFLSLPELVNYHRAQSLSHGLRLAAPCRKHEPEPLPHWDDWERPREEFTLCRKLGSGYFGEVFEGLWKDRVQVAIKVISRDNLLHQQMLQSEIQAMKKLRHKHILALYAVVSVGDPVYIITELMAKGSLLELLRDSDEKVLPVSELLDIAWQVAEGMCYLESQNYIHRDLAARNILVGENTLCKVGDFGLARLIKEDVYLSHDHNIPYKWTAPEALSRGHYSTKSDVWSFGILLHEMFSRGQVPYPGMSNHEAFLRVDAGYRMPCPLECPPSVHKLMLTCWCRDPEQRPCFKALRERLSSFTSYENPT
The source made the active and inactive calls.
Classes to choose from: active, inactive

(Q) What did the test return for O=c1sn(-c2cccc3ccccc23)c(=O)n1Cc1ccccc1 ?
(A) inactive

(Q) Assay result, entry O=C(Nc1ccc(-c2ccnc(Nc3ccc(N4CCOCC4)cc3)n2)cc1)C1CCCN1 (centres undefined) — outcome?
(A) inactive

(Q) What call does the record list for CCS(=O)(=O)N1CC(CC#N)(n2cc(-c3ncnc4[nH]ccc34)cn2)C1 ?
(A) inactive

(Q) What outcome does the record of this test show for COc1cc(N2CCC(N3CCN(C)CC3)CC2)ccc1Nc1ncnc(Nc2ccccc2S(=O)(=O)C(C)C)n1 ?
(A) active

###

Target: Mitogen-activated protein kinase 8 (Homo sapiens, UniProt P45983); also: in the data inactive means no Kd found up to 30 µM
Sequence (P45983 whole entry): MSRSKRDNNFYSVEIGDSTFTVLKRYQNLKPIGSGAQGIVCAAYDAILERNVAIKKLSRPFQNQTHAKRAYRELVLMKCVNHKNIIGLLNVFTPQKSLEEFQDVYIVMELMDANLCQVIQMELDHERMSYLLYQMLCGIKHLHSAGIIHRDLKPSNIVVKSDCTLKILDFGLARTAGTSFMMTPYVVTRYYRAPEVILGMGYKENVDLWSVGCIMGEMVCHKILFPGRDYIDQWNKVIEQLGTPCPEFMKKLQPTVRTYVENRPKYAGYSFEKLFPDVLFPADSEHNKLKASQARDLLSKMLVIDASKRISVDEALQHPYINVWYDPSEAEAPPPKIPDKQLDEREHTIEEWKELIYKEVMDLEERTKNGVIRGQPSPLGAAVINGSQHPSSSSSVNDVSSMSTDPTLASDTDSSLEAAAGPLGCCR
Activity calls are given as the source filed them.
Choose the fitting class; nothing outside true (1) = active, false (0) = inactive is accepted.

(Q) What was the test verdict on O=C1NC(=O)/C(=C/c2ccc3nccc(-c4ccncc4)c3c2)S1 ?
(A) false (0)

(Q) Any idea what this test logged for O=c1sn(-c2cccc3ccccc23)c(=O)n1Cc1ccccc1 ?
(A) false (0)

(Q) For C=CC(=O)N1CCC(Oc2cc3c(Nc4ccc(Cl)c(Cl)c4F)ncnc3cc2OC)CC1 , what call appears in the results of this test?
(A) false (0)

(Q) // return assay outcome for C1=C/COCc2cc(ccc2OCCN2CCCC2)Nc2nccc(n2)-c2cccc(c2)COC/1
(A) true (1)

(Q) Call for entry CC(=O)Nc1cccc(-n2c(=O)n(C3CC3)c(=O)c3c(Nc4ccc(I)cc4F)n(C)c(=O)c(C)c32)c1 :
(A) false (0)

(Q) What did the test return for Cn1cc(-c2ccc(F)c(C(F)(F)F)c2)nc1C1CCN(c2ncnc3[nH]ncc23)CC1 ?
(A) false (0)

(Q) Check the results log: what was the call for CC[C@H](Nc1ncnc2[nH]cnc12)c1nc2cccc(F)c2c(=O)n1-c1ccccc1 ?
(A) false (0)

(Q) Status in this test for CCN1CCN(Cc2ccc(-c3cc4c(N[C@H](C)c5ccccc5)ncnc4[nH]3)cc2)CC1 ?
(A) false (0)

(Q) # lookup: test call for CCCS(=O)(=O)Nc1ccc(F)c(C(=O)c2c[nH]c3ncc(-c4ccc(Cl)cc4)cc23)c1F
(A) false (0)

(Q) Test call, this molecule: Cn1ncc(Cl)c1-c1cc(C(=O)N[C@H](CN)Cc2cccc(F)c2)sc1Cl
(A) false (0)

(Q) Entry COc1ccc(-c2ccc3c(N4CCOC[C@@H]4C)nc(N4CCOC[C@@H]4C)nc3n2)cc1CO : call = ?
(A) false (0)

(Q) I would be grateful if you could indicate the recorded call for CC[C@@H]1C(=O)N(C)c2cnc(Nc3ccc(C(=O)N[C@H]4CC[C@H](N5CCN(CC6CC6)CC5)CC4)cc3OC)nc2N1C(C)C .
(A) false (0)

(Q) For O=C(O)[C@]1(Cc2cccc(Nc3nccs3)n2)CC[C@@H](Oc2cccc(Cl)c2F)CC1 , which call appears in the assay record?
(A) true (1)

(Q) Record request — test call for CNC(=O)c1cc(Oc2ccc(NC(=O)Nc3ccc(Cl)c(C(F)(F)F)c3)c(F)c2)ccn1
(A) false (0)

(Q) Which outcome was assigned to O=C(c1ccc(F)c(F)c1Nc1ccc(I)cc1F)N1CC(O)([C@@H]2CCCCN2)C1 in this test?
(A) false (0)

###

Give measured Kd for each item. Keep answers brief.
Target sequence: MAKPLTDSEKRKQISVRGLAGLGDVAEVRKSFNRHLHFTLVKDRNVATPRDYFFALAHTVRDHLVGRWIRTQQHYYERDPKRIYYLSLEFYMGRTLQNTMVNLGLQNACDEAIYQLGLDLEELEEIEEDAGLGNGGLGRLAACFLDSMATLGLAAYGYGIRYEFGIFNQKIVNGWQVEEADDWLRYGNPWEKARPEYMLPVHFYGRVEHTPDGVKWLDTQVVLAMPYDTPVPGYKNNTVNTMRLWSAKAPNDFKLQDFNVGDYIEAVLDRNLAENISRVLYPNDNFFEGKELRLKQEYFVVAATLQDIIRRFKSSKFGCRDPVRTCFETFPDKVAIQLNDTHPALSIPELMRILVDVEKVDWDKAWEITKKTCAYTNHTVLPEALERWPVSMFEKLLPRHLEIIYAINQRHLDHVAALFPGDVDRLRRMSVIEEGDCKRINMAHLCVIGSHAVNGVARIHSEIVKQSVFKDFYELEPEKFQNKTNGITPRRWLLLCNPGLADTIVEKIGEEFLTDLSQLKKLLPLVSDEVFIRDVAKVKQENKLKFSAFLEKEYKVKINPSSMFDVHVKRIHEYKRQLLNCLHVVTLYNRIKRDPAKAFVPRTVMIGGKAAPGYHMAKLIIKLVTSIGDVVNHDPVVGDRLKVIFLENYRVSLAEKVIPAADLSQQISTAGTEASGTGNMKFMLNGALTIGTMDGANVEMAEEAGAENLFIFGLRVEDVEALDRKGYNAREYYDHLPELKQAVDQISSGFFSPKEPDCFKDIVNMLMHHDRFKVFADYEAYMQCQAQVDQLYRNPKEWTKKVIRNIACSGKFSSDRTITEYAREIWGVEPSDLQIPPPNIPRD
Calls of active or inactive are those of the source.

(Q) Name the reported Kd value associated with the compound Cn1ncc(Cl)c1-c1cc(C(=O)N[C@H](CN)Cc2cccc(F)c2)sc1Cl
(A) > 30 µM (inactive)

(Q) Query: Kd; subject: O=C(Nc1ccc(-c2ccnc(Nc3ccc(N4CCOCC4)cc3)n2)cc1)C1CCCN1 (centres undefined)
(A) > 30 µM (inactive)

(Q) Item O=C(O)[C@]1(Cc2cccc(Nc3nccs3)n2)CC[C@@H](Oc2cccc(Cl)c2F)CC1 has what recorded Kd?
(A) > 30 µM (inactive)

(Q) // returns reported Kd for input CN1CCC(CNc2ccc3ncc(-c4cccc(OC(F)(F)F)c4)n3n2)CC1
(A) > 30 µM (inactive)

###

Biological target: UniProt O15197
Sequence (O15197 whole entry): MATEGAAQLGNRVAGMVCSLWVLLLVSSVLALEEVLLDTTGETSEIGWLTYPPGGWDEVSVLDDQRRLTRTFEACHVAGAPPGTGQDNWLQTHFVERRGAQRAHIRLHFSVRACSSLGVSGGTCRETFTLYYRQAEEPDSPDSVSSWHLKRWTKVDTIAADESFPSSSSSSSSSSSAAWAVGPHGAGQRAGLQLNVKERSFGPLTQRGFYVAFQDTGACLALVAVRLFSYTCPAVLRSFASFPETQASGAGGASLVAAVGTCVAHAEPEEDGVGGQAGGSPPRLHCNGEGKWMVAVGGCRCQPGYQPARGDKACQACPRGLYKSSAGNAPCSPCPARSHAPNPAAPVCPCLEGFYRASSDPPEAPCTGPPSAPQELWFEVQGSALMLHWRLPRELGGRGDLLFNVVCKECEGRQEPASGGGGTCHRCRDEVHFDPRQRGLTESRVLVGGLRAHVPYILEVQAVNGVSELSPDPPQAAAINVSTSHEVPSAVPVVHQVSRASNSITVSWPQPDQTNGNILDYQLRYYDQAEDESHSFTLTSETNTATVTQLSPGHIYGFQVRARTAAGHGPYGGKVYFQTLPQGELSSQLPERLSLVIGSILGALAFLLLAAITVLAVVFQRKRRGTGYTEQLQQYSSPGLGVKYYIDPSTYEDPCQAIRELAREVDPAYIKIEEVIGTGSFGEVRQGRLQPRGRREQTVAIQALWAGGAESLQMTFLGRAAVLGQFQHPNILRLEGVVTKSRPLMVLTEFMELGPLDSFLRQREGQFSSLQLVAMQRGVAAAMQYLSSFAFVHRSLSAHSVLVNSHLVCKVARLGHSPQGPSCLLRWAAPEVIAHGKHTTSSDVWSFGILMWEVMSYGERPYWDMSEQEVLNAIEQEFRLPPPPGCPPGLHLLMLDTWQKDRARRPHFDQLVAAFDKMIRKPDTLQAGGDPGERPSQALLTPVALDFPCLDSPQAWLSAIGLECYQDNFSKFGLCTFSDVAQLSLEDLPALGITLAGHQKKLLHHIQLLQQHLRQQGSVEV
Active and inactive are the calls of the source.
reported endpoint: Kd

(Q) Form field: Kd recorded for CCc1cnn2c(NCc3ccc[n+]([O-])c3)cc(N3CCCC[C@H]3CCO)nc12 [DINACICLIB] with UniProt O15197 (enter value)
(A) > 30 µM (inactive)

(Q) Find the measured Kd: item COC(=O)[C@@]1(O)C[C@H]2O[C@]1(C)n1c3ccccc3c3c4c(c5c6ccccc6n2c5c31)C(=O)NC4 [K-252A] , target or system UniProt O15197.
(A) > 30 µM (inactive)

(Q) // map CNC(=O)c1cc(Oc2ccc(NC(=O)Nc3ccc(Cl)c(C(F)(F)F)c3)c(F)c2)ccn1 [REGORAFENIB] to recorded Kd (system: UniProt O15197)
(A) > 30 µM (inactive)

(Q) Checklist item: Kd tested on UniProt O15197, entry CCn1c(=O)c(-c2cc[nH]n2)cc2c(C)nc(N)nc21 [VOXTALISIB] , value?
(A) > 30 µM (inactive)

(Q) Find the measured Kd: item C1=C/COCc2cc(ccc2OCCN2CCCC2)Nc2nccc(n2)-c2cccc(c2)COC/1 [PACRITINIB] , target or system UniProt O15197.
(A) > 30 µM (inactive)

(Q) # returns recorded Kd (system: UniProt O15197) for O=C1NC(=O)/C(=C/c2ccc3nccc(-c4ccncc4)c3c2)S1 [GSK-1059615]
(A) > 30 µM (inactive)

(Q) Form field - read-out: Kd; system: UniProt O15197; submitted item: COc1cc2nccc(Oc3ccc(NC(=O)Nc4cc(C)on4)c(Cl)c3)c2cc1OC [TIVOZANIB]
(A) > 30 µM (inactive)

(Q) Provide the documented Kd with UniProt O15197 as the system for Cn1cc(-c2ccc3nnc(C(F)(F)c4ccc5ncccc5c4)n3n2)cn1 [JNJ-38877605]
(A) > 30 µM (inactive)

###

Molecular target: Mitogen-activated protein kinase 14 (Homo sapiens, UniProt Q16539); also: in the data inactive means no Kd found up to 30 µM
Sequence (Q16539 whole entry): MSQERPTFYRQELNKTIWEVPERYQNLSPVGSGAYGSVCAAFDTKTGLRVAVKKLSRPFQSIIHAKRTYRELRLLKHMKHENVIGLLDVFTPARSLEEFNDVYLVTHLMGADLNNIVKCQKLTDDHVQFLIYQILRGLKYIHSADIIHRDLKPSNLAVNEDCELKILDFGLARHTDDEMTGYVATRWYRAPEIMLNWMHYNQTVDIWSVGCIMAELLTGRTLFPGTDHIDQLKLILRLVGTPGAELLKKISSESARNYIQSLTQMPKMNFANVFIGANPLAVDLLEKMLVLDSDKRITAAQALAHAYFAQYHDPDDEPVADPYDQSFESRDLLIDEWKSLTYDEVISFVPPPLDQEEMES
Active and inactive are the calls of the source.
Returns: one label drawn from class 1 (active), class 0 (inactive)

(Q) What call does the record list for COc1cc2nccc(Oc3ccc(NC(=O)Nc4cc(C)on4)c(Cl)c3)c2cc1OC ?
(A) class 0

(Q) Write down the call the test reported for this compound. Item: O=C(Nc1ccc(-c2ccnc(Nc3ccc(N4CCOCC4)cc3)n2)cc1)C1CCCN1 (stereo unspecified)
(A) class 0

(Q) For CN1CCC(CNc2ccc3ncc(-c4cccc(OC(F)(F)F)c4)n3n2)CC1 , what call appears in the results of this test?
(A) class 0

(Q) # fetch the recorded call for Cc1ccc(NC(=O)c2ccc(CN3CC[C@H](N(C)C)C3)c(C(F)(F)F)c2)cc1Nc1nccc(-c2cncnc2)n1 here
(A) class 1

(Q) Which result was noted for this compound in the test: COc1cc2nccc(Oc3ccc(NC(=O)NC4CC4)c(Cl)c3)c2cc1C(N)=O
(A) class 1

(Q) Please indicate how the test categorized CC(=O)Nc1cccc(-n2c(=O)n(C3CC3)c(=O)c3c(Nc4ccc(I)cc4F)n(C)c(=O)c(C)c32)c1 .
(A) class 0

(Q) What did this assay record as the result for COc1cc(N2CCC(N3CCN(C)CC3)CC2)ccc1Nc1ncnc(Nc2ccccc2S(=O)(=O)C(C)C)n1 ?
(A) class 0

(Q) Could you check what this test reported for CNS(=O)(=O)Nc1nccc(Cc2c(C)c3ccc(Oc4ncccn4)cc3oc2=O)c1F ?
(A) class 0

(Q) Assay outcome for C1=C/COCc2cc(ccc2OCCN2CCCC2)Nc2nccc(n2)-c2cccc(c2)COC/1 : what was it?
(A) class 0

(Q) Status in this test for COc1cc(CCc2cc(NC(=O)c3ccc(N4C[C@@H](C)N[C@@H](C)C4)cc3)n[nH]2)cc(OC)c1 ?
(A) class 0

(Q) Short answer needed: outcome of this test for O=C(O)[C@]1(Cc2cccc(Nc3nccs3)n2)CC[C@@H](Oc2cccc(Cl)c2F)CC1 ?
(A) class 0

(Q) Hello, I am checking results. What call was entered for O=C1NC(=O)/C(=C/c2ccc3nccc(-c4ccncc4)c3c2)S1 ?
(A) class 0

(Q) Assay result, entry Cc1cc([C@@H](C)Nc2ccccc2C(=O)O)c2nc(N3CCOCC3)cc(=O)n2c1 — outcome?
(A) class 0

(Q) Identify the outcome logged in this assay for the compound shown: CCCS(=O)(=O)Nc1ccc(F)c(C(=O)c2c[nH]c3ncc(-c4ccc(Cl)cc4)cc23)c1F
(A) class 0

(Q) // outcome(item) with item = C[C@@H](c1ccc2nccn2c1)n1nnc2ncc(-c3cnn(C)c3)nc21
(A) class 0

(Q) # outcome recorded in this test, key = COc1ccc(-c2ccc3c(N4CCOC[C@@H]4C)nc(N4CCOC[C@@H]4C)nc3n2)cc1CO
(A) class 0
